So I've got a bunch of compounds here, and I need their Pf_120h_%Growth_Rep2 values.
- System: P. falciparum 3D7 parasites
- Assay Details: P. falciparum growth inhibition assay, 2-cycle (120 h treatment), delayed-death screen and dose-response
- Assay type: cell-based, Plasmodium falciparum
- Conditions: library screen at 2 μg/mL, 120 h, % growth, replicate 2

State the measured Pf_120h_%Growth_Rep2 (P. falciparum 3D7 parasites) of CCCCCC[C@H]1C(=O)O[C@H](C)[C@@H](O)/C=C/C=C/C=C/C=C/C=C(\C)[C@@H](O)C[C@H](O)C[C@H](O)C[C@H](O)C[C@H](O)C[C@H](O)C[C@@H]1O 90.94%

State the measured Pf_120h_%Growth_Rep2 (P. falciparum 3D7 parasites) of CN1C(=O)[C@]23C[C@H]4C(C)(C)[C@]5(CNc6c5ccc5c6OC=CC(C)(C)O5)C[C@@]41CN2CC[C@@]3(C)O 91.44%

State the measured Pf_120h_%Growth_Rep2 (P. falciparum 3D7 parasites) of COc1ccc(C[C@H]2NC[C@H](O)[C@H]2OC(C)=O)cc1 -15.33%
